- test-target: hNav1.7 (Homo sapiens (Human))
- Sequence (Q15858 other isoform, or with tags, fused parts or gaps): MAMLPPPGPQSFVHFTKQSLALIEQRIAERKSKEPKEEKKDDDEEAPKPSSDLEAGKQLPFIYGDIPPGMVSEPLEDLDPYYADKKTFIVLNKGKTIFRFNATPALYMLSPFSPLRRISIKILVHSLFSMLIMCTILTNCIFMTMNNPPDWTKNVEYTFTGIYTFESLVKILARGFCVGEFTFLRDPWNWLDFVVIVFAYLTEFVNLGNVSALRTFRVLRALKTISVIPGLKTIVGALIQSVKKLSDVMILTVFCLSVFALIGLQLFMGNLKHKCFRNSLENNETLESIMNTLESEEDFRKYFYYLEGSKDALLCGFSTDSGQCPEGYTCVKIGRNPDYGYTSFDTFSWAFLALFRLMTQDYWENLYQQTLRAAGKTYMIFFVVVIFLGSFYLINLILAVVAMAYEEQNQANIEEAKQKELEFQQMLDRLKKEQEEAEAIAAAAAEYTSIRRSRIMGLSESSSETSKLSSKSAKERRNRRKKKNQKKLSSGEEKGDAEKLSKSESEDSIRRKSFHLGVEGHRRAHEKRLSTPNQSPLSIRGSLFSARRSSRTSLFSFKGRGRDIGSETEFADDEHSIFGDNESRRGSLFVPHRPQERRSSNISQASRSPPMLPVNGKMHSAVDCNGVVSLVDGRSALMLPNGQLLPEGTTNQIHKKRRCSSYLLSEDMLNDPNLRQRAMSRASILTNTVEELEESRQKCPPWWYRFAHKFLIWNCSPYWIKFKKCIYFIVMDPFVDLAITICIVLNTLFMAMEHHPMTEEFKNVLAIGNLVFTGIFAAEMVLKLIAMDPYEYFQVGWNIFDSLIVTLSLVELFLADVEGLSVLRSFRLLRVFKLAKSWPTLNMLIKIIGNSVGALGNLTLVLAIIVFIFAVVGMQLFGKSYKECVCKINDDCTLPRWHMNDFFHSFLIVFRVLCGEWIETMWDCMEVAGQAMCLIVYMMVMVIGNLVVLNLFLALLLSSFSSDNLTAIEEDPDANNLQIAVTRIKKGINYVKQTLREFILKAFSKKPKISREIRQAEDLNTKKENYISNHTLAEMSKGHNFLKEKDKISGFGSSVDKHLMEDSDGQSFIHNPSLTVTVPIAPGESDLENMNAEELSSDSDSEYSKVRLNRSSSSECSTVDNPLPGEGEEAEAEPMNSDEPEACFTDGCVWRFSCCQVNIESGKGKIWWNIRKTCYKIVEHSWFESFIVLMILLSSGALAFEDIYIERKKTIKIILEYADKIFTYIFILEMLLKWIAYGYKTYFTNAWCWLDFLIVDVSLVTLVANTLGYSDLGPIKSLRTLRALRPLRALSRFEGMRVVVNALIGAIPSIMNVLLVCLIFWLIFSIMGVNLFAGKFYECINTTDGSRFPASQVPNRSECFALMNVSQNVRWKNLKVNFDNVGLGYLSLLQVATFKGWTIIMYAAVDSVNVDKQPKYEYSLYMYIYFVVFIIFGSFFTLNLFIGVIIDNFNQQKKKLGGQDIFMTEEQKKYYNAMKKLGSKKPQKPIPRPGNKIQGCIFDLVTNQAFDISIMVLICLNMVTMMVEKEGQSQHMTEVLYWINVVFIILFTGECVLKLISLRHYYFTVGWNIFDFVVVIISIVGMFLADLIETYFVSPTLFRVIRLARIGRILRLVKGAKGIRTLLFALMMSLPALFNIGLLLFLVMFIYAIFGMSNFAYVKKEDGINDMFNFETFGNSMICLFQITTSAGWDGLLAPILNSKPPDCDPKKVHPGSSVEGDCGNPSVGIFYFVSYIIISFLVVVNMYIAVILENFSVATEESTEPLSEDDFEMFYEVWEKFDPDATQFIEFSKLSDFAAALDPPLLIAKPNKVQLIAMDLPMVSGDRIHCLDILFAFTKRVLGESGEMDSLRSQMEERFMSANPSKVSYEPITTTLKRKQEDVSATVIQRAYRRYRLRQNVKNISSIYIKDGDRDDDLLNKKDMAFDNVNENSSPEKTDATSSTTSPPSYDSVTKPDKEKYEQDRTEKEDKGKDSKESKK
- experiment-notes: Patch voltage clamp electrophysiology assay (EP), Syncropatch 384PE, CHO cells expressing Nav1.7
- particulars: holding potential −50 mV; 7.5 min compound incubation; read-out: EP SP hNav1.7 EVO (IC50)
Counter-ions that a name gives are not always drawn.
Measured IC50, listed per entry.
Answer shape: numeric part, then the unit.

Sample answers from the record:
{"columns": ["compound", "observed"],
 "data": [
  ["Cc1ccc(CC[C@]2(N(C)C)CCCN(c3cc(F)c(S(=O)(=O)Nc4ccncn4)c(F)c3)C2)cc1C(F)(F)F (single isomer, unassigned) [Example 84, formate]", "2.84 nM"],
  ["CN1CCC(CN(C)C2(CCc3cccc(C(F)(F)F)c3)CCCN(c3ccc(S(=O)(=O)Nc4ccncn4)c(F)c3)C2)C1 (centres unmarked) [Example 31, formate]", "8.59 nM"],
  ["CN(C)[C@@]1(CCc2ccc(Cl)c(C(F)(F)F)c2)CCCN(c2cc(F)c(S(=O)(=O)Nc3ccncn3)c(F)c2)C1 (single isomer, unassigned) [Example 54]", "362 nM"],
  ["CN(C)[C@@]1(CCc2cccc(C3CC3)c2)CCCN(c2cc(F)c(S(=O)(=O)Nc3ccncn3)c(F)c2)C1 (single isomer, unassigned) [Example 88, formate]", "3.29 nM"]
]}

So, CN(C)[C@@]1(CCc2ccc(C3CC3)c(C(F)(F)F)c2)CCCN(c2cc(F)c(S(=O)(=O)Nc3ccncn3)c(F)c2)C1 (single isomer, unassigned) [Example 86] ? Its IC50 was 3.78 nM
